- protocol_details: Determination of logD (1-octanol / phosphate buffer pH 7.4)
- Format: physicochemical
- experimental_parameters: 1-octanol/phosphate buffer, pH 7.4, pH 7.4, 1-octanol/phosphate buffer; read-out: Log D, pH 7.4
value_type: logD

A = CC(C)c1nccc(/C=C/C(=O)N2CCN(c3nc(OC[C@@]45CCCN4C[C@H](F)C5)nc4c(F)c(-c5cccc6cccc(Cl)c56)ncc34)C[C@@H]2CC#N)n1 [Compound 151]
B = N#CC[C@H]1CN(c2nc(OCC34CCCN3CCC4)nc3c2CCN(c2cccc4cccc(Cl)c24)C3)CCN1C(=O)/C=C/CN1CCS(=O)(=O)CC1 [Compound 169]
C = N#CC[C@H]1CN(c2nc(OCC34CCCN3CCC4)nc3c2CCN(c2ccccc2C(F)F)C3)CCN1C(=O)/C=C/CN1CCOCC1 [Compound 61]
From the items above, give an ordering by logD that starts at the lowest reported number. Field: ranking. Enter the labels in the order requested.
C, B, A
(C: 1.22, B: 2.02, A: 3.71)

###

The compounds listed here are annotated with their pIC50.
- target_or_system: KRAS G12C (GMPPNP-loaded) and cRAF (Ras-binding domain) interaction (Homo sapiens (Human), UniProt P01116, C118S/C51S/C80L/G12C)
- Sequence (P01116 other isoform, or with tags, fused parts or gaps G12C/C51S/C80L/C118S): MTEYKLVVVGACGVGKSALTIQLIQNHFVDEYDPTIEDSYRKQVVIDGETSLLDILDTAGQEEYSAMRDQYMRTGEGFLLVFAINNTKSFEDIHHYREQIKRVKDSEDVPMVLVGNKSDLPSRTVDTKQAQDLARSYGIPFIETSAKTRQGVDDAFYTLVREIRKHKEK
- protocol_details: Inhibition of KRAS G12C and cRAF binding (AlphaScreen)
- experimental_parameters: KRAS G12C loaded with GMPPNP, cRaf RBD, 2 hours preincubation; read-out: Raf-1 RBD K-Ras IC50
pIC50: −log10 of the molar value.

Sample answers from the record:
compound	pIC50
CO[C@H]1CCN(C/C=C/C(=O)N2CCN(c3nc(OC[C@@]45CCCN4C[C@H](F)C5)nc4c(F)c(-c5cccc6ccc(F)c(F)c56)ncc34)C[C@@H]2CC#N)C1	> 8.00
Cc1cc(N)nc(C2Cc3nc(OC[C@@]45CCCN4C[C@H](F)C5)nc(N4CCN(C(=O)/C=C/CN5CCOCC5)[C@@H](CC#N)C4)c3CC2C)c1C(F)(F)F (mixture of isomers)	7.00 to 8.00

Quickly give me recorded pIC50 for `N#CC[C@H]1CN(c2nc(OC[C@@]34CCCN3C[C@H](F)C4)nc3c(F)c(-c4cccc5cccc(Cl)c45)ncc23)CCN1C(=O)/C=C/CN1CCN(C2COC2)CC1`
> 8.00

Quickly give me recorded pIC50 for `N#CC[C@H]1CN(c2nc(OC[C@@]34CCCN3C[C@H](F)C4)nc3c(F)c(-c4cccc5ccc(F)c(F)c45)ncc23)CCN1C(=O)/C=C/CN1CCCOCC1`
> 8.00

Quickly give me recorded pIC50 for N#CC[C@H]1CN(c2nc(OC[C@@]34CCCN3C[C@H](F)C4)nc3c(F)c(-c4cccc5cccc(Cl)c45)ncc23)CCN1C(=O)/C=C/CN1CCn2ncnc2C1 [Compound 267]
7.00 to 8.00

Quickly give me recorded pIC50 for `N#CC[C@H]1CN(c2nc(OC[C@@]34CCCN3C[C@H](F)C4)nc3c(F)c(-c4cccc(Cl)c4C4CCC4)ncc23)CCN1C(=O)/C=C/CN1[C@@H]2CC[C@H]1COC2`
7.00 to 8.00

Quickly give me recorded pIC50 for `Cc1cc(N)nc([C@H]2Cc3nc(OC[C@@]45CCCN4C[C@H](F)C5)nc(N4CCN(C(=O)/C=C/CN(C)C)[C@@H](CC#N)C4)c3C[C@@H]2C)c1C(F)(F)F`
6.30 to 7.00
